Recorded EC50 by entry
Target: T1, human CD134 (full-length, on cells) (human, UniProt P43489 29-277)
T1 construct: also called OX40; TNFRSF4
T1 sequence: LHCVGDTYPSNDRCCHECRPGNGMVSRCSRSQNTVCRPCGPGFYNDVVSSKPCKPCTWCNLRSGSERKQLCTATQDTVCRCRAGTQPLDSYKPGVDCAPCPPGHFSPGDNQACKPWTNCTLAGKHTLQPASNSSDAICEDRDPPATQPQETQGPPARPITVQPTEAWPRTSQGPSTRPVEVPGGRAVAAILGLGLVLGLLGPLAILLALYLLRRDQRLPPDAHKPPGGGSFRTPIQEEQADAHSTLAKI
Experiment: flow cytometry, stable CD134 293-F clone no. 23

- binder: "humanized IgG4κ anti-human CD134 antibody clone 12H3 version 12H3_VL2VH2 (antibody, V domains shown, Stabilized human IgG4/κ; end of each range computed; also called 12H3_VL2H2) VH: QVQLVQSGAEVKKPGSSVKVSCKASGYTFKDYTMHWVRQAPGQGLEWIGGIYPNNGGSTYNQNFKDRVTLTADKSTSTAYMELSSLRSEDTAVYYCARMGYHGPHLDFDVWGQGTTVTVSS VL: DIQMTQSPSSLSASVGDRVTITCKASQDVGAAVAWYQQKPGKAPKLLIYWASTRHTGVPDRFSGGGSGTDFTLTISSLQPEDFATYYCQQYINYPLTFGGGTKVEIKR"
  EC50: "< 0.2 µg/mL"
- binder: "humanized IgG4κ anti-human CD134 antibody clone 12H3 version 12H3_VL2VH3 (antibody, V domains shown, Stabilized human IgG4/κ; end of each range computed) VH: QVQLVQSGAEVKKPGSSVKVSCKASGYTFKDYTMHWVRQAPGQGLEWIGGIYPNNGGSTYNQNFKDRATLTVDKSTSTAYMELSSLRSEDTAVYYCARMGYHGPHLDFDVWGQGTTVTVSS VL: DIQMTQSPSSLSASVGDRVTITCKASQDVGAAVAWYQQKPGKAPKLLIYWASTRHTGVPDRFSGGGSGTDFTLTISSLQPEDFATYYCQQYINYPLTFGGGTKVEIKR"
  EC50: "< 0.2 µg/mL"
- binder: "humanized IgG4κ anti-human CD134 antibody clone 12H3 version 12H3_VL1VH3 (antibody, V domains shown, Stabilized human IgG4/κ; end of each range computed; also called 12H3_VL1H3) VH: QVQLVQSGAEVKKPGSSVKVSCKASGYTFKDYTMHWVRQAPGQGLEWIGGIYPNNGGSTYNQNFKDRATLTVDKSTSTAYMELSSLRSEDTAVYYCARMGYHGPHLDFDVWGQGTTVTVSS VL: DIQMTQSPSSLSASVGDRVTITCKASQDVGAAVAWYQQKPGKAPKLLIYWASTRHTGVPSRFSGSGSGTDFTLTISSLQPEDFATYYCQQYINYPLTFGGGTKVEIKR"
  EC50: "< 0.2 µg/mL"

Value source: patent US20140377284A1
